In this section, each of the molecules is paired with its reported log10(intrinsic clearance, human liver microsomes).
Give log10 of intrinsic clearance, human liver microsomes, with intrinsic clearance, human liver microsomes taken in mL/min/kg.

# annotated cases, reported log10(intrinsic clearance, human liver microsomes) shown
{"columns": ["SMILES TEXT", "REPORTED MEASUREMENT"],
 "data": [
  ["CCOc1ccc(CC(=O)N2CCC3(CC2)Nc2cc(C)ccc2-n2cccc23)cc1OCC", 2.27],
  ["O=C(CSC1CCCC1)N1CCC(Cn2cccn2)CC1", 1.87],
  ["COc1cc2c(cc1OC)CC(=O)N(CCCN(C)C[C@H]1Cc3cc(OC)c(OC)cc31)CC2", 1.56],
  ["CN1CCC(NS(=O)(=O)C2CN(C(=O)c3cccc(Cl)c3)C2)CC1", 0.69],
  ["O=C(Nc1cccc(Cl)c1F)c1cccc(N2CCCC2=O)c1", 1.92],
  ["OC1CCN(c2nccc(-c3cccs3)n2)CC1", 1.72]
]}

Here's the next entry for you.
For this molecule ( "COc1ccccc1C(=O)CSc1nncn1C1CC1" ), measured log10(intrinsic clearance, human liver microsomes) is 1.39

###

CONDITION CONTEXT: pH 6.8
In this section, each of the molecules is paired with its reported aqueous solubility.
// return numeric value only (unit: µg/mL, not printed)

# annotated cases, reported aqueous solubility shown
{"columns": ["SMILES TEXT", "TEST READOUT", "REPORTED MEASUREMENT"],
 "data": [
  ["COCC(=O)Nc1nc(C)c(C)s1", "aqueous solubility", 25.6],
  ["c1ccc(-c2nsc(N3CCCN(c4nccs4)CC3)n2)cc1", "aqueous solubility", 29.6],
  ["CCN1CCN(S(=O)(=O)Cc2ccc(Cl)c(Cl)c2)CC1", "aqueous solubility", 25.7],
  ["Cn1nccc1CC1CCN(C2CCCC2)CC1", "aqueous solubility", 26.2],
  ["CN(C)S(=O)(=O)N1CCC(c2ccc3c(NCc4ccccc4F)n[nH]c3n2)CC1", "aqueous solubility", 0.15]
]}

Here's the next entry for you.
For this molecule ( "Cc1cc(C(=O)Nc2cccc(-c3cnco3)c2)c2c(C)nn(C)c2n1" ), measured aqueous solubility is 8.73

###

In this section, each of the compounds is paired with its reported log10 intrinsic clearance, rat liver microsomes.
Give log10 of intrinsic clearance, rat liver microsomes, with intrinsic clearance, rat liver microsomes taken in mL/min/kg.

For this compound ( "Cc1nn(-c2ccc(C(=O)O)cc2C#Cc2ccccc2)c(C)c1C" ), measured log10 intrinsic clearance, rat liver microsomes is 2.77

For this compound ( "Cc1ncccc1CNc1nnc(C(C)(C)C)s1" ), measured log10 intrinsic clearance, rat liver microsomes is 1.29

For this compound ( "COc1cccc(CC(=O)Nc2ccc3nc(C)sc3c2)c1" ), measured log10 intrinsic clearance, rat liver microsomes is 2.53

For this compound ( "CC(=O)N(C)[C@@H]1CO[C@@H]2CCN(C[C@]3(O)CC[C@@H](C(C)(C)C)CC3)C[C@@H]2C[C@@]1(C)O" ), measured log10 intrinsic clearance, rat liver microsomes is 2.44

For this compound ( Cc1cc(C)nc(SCC(=O)N2c3ccccc3C(C)(c3ccc(Cl)cc3)CC2(C)C)n1 (stereo not given) ), measured log10 intrinsic clearance, rat liver microsomes is 3.32

For this compound ( "N#CC1(C(=O)N2CCN(Cc3ccccn3)CC2)CCCCC1" ), measured log10 intrinsic clearance, rat liver microsomes is 2.91

For this compound ( "Cc1noc(C)c1COc1ccc2ncccc2c1" ), measured log10 intrinsic clearance, rat liver microsomes is 2.53

For this compound ( O=C(C1CC1c1ccccc1F)N1CCC(n2c(=O)[nH]c3ccccc32)CC1 (stereo not given) ), measured log10 intrinsic clearance, rat liver microsomes is 3.08

For this compound ( "O=C(Nc1cncc(Cl)c1Cl)c1cccc(-n2cccn2)n1" ), measured log10 intrinsic clearance, rat liver microsomes is 2.17

For this compound ( "CCOc1ccc2[nH]c(C(=O)N3CC[C@@](O)(CC(C)C)[C@@H](Oc4ccc(F)cc4)C3)c(C)c2c1" ), measured log10 intrinsic clearance, rat liver microsomes is 2.97

For this compound ( "CCc1cnc(C)nc1-c1ccc(-c2ccn[nH]2)cc1" ), measured log10 intrinsic clearance, rat liver microsomes is 1.88

For this compound ( "CN(C)C(=O)C(C)(C)NC(=O)OC(C)(C)C" ), measured log10 intrinsic clearance, rat liver microsomes is 1.39

For this compound ( "CC(C)(C)OC(=O)NCc1ccc(C(=N)NC(=O)OCc2ccccc2)cc1" ), measured log10 intrinsic clearance, rat liver microsomes is 3.11
